Test system: c-Abl (mouse)
protocol summary: phosphorylation enrichment, bacterial display (enrichment ratio); higher = better substrate or ligand; peptides without Tyr show the background
readout name: phosphorylation enrichment
One number for each entry.

Examples with their reported phosphorylation enrichment follow.
LKVDVYRRSHK [FUT3_Y222_G223R] ... 0.908
VNCHQYDGLVE [ATP2A2_Y407] ... 0.672
LDFPEYNGVDR [CASQ1_Y43_D44N] ... 1.95
PQGVRYIFTID [DCX_Y103_YF] ... 1.38
SKNSKYNAEST [PSEN1_Y315] ... 0.52
KNEVLYDGENH [ARFGEF1_Y314] ... 0.668

Please look at the items below and tell me phosphorylation enrichment for each one, in order.
1. RKKEEYKMAPY [F8_Y1990_L1994P]
2. KLQKYYRKNPD [EHHADH_Y683_Q685K]
3. PLRANYLIARV [HLCS_Y635_D634N]

Reply text:
1: 1.03; 2: 0.394; 3: 2.74

Please look at the items below and tell me phosphorylation enrichment for each one, in order.
1. REVPVYTYSEP [FAM120B_Y368_D370Y]
2. EFISECCGEII [EZH2_Y641_Y641C]
3. ICANKYMVESC [RPL10_Y75_K78E]

Reply text:
[1.97, 1.24, 0.657]

Please look at the items below and tell me phosphorylation enrichment for each one, in order.
1. HDEPTYARSSK [PEAK1_Y616]
2. RFMELYDLNRD [BBS2_Y648_YF]
3. GNLQENLTRHV [TGFBR2_Y336_Y336N]
4. EWQQIYTYDSG [JUP_Y20_T19I]
5. GIPIQYPIISE [NOG_Y222_W217G]
6. MSPPGYKLVNG [GJA1_Y286_T290N]

Reply text:
1: 0.864; 2: 0.556; 3: 0.432; 4: 0.75; 5: 0.888; 6: 0.52

----------
study system: Jak2 (UniProt O60674)
Sequence (O60674 whole entry, looked up): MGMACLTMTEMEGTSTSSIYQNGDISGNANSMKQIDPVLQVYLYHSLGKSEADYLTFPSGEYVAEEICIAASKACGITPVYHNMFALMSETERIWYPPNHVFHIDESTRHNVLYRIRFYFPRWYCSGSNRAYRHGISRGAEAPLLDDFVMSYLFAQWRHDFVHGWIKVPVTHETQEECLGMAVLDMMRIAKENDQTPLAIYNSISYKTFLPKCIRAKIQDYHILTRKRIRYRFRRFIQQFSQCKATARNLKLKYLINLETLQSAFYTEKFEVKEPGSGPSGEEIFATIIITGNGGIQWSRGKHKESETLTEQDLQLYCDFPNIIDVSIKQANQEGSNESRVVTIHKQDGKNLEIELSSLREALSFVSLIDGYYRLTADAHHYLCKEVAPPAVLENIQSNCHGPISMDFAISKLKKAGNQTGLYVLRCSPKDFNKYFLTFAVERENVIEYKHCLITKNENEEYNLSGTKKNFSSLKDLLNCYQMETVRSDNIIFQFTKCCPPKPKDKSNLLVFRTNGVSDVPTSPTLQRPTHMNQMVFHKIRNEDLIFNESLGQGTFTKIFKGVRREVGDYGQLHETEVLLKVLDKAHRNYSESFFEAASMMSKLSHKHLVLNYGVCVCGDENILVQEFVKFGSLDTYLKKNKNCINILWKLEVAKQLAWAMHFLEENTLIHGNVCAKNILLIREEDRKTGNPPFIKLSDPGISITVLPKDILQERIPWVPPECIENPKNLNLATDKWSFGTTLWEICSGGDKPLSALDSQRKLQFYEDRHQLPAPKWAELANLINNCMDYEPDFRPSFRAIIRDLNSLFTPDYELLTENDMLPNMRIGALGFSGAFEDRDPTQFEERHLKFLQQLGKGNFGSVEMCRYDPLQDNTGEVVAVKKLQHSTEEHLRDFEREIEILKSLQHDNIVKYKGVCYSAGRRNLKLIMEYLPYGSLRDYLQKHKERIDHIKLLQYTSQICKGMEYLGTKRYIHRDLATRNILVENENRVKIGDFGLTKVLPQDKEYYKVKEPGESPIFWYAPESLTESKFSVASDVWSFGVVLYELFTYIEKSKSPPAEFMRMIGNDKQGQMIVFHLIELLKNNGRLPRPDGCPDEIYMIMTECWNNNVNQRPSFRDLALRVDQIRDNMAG
protocol summary: phosphorylation enrichment, bacterial display (enrichment ratio); higher = better substrate or ligand; peptides without Tyr show the background
For each record, write down the corresponding phosphorylation enrichment.
One number for each entry.

LHRAHYDLRHT [AHSG_Y314] ... 0.725
NTGDFYDLFGG [PTPN11_Y63_YF] ... 0.985

Continue with the sequence presented below.
The reported value for CNLDTYQKRLR [PLA2G2D_Y126_R121C] in terms of phosphorylation enrichment is 0.563

----------
study system: c-Src SH2;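 also: peptide library displayed on the E. coli surface as eCPX fusions, selected cells deep-sequenced, score is each peptide's frequency after selection divided by its frequency in the input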
protocol summary: SH2 binding enrichment of the phosphorylated peptide, bacterial display (enrichment ratio); higher = better substrate or ligand; peptides without Tyr show the background
Decide by SH2 binding enrichment: equal to or exceeding 0.6 means condition met, less means condition not met.

Please review the entries below; each comes with its answer.
MAPQMYESHLP [NCAPD2_Y6_F8S] ... condition met
KNSFKYFMSDD [ATRX_Y203_C200S_YF] ... condition not met
FRSSLYLLMET [MYO5C_Y633] ... condition met
EGGFAYVPLKD [PRIM2_Y208_D204G] ... condition not met

Inquiry: Determine whether measured SH2 binding enrichment meets or exceeds 0.6 for AHAGEYGAEAL [HBA1_Y25]
Reply text: condition not met

Inquiry: Determine whether measured SH2 binding enrichment meets or exceeds 0.6 for DFPIGYPSYLA [TBCK_Y153]
Reply text: condition not met

Inquiry: Determine whether measured SH2 binding enrichment meets or exceeds 0.6 for VRFMAYTDEIF [F8_Y450_T454I]
Reply text: condition not met

Inquiry: Determine whether measured SH2 binding enrichment meets or exceeds 0.6 for CATIHYNYMCN [TP53_Y234_T230A]
Reply text: condition met
